From: patent US20220324970A1

Biological target: T1, human pIgR extracellular domain (ECD) (human, UniProt P01833 19-638)
T1 construct: also called hpIgR ECD
T1 sequence (P01833 other isoform, or with tags, fused parts or gaps): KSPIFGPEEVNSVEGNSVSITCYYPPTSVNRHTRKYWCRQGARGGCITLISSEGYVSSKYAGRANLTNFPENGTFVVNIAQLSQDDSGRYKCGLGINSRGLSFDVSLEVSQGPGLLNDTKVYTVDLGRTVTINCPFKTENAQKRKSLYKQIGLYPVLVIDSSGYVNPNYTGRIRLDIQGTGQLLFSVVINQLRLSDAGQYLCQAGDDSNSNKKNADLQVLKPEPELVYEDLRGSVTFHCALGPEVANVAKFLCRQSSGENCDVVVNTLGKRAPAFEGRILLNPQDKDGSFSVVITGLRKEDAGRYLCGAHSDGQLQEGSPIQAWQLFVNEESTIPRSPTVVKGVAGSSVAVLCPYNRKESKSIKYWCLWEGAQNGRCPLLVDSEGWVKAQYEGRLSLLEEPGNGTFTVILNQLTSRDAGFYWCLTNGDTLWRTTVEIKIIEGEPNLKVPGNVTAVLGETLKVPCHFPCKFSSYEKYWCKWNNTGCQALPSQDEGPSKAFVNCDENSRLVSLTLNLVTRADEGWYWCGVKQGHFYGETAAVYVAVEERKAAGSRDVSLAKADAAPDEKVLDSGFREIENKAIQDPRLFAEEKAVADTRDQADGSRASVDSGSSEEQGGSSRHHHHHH
Assay: ECL (MSD), hpIgR-ECD coated, anti-Fc detection
pEC50: −log10 of the molar value.

# binder, pEC50
rows = [
    ("VHH6-linker-mono-Fc protein (Fc fusion, made in CHO cells; also called VHH6-mono-Fc; hpIgR_181) EVQLVESGGGLVQAGGSLRLSCAVSGSSVSSDAMGWYRQAPGNQRAWVAFISGGGTTTYADSVKGRFTISRDNTKNTVYLHMNSLKPEDTAVYYCNHPLTSRWGQGTQVTVSSEPKTPKPQPQPQLQPQPNPTTESKSPKSPAPELLGGPSVFLFPPKPKDTLMISRTPEVTCVVVDVSHEDPEVKFNWYVDGVEVHNAKTKPREEQYNSTYRVVSVLTVLHQDWLNGKEYKCKVSNKALPAPIEKTISKAKGQPREPQVYTKPPSREEMTKNQVSLSCLVKGFYPSDIAVEWESNGQPENNYKTTVPVLDSDGSFRLASYLTVDKSRWQQGNVFSCSVMHEALHNHYTQKSLSLSPGK", 8.41),
]
